# TEST_TARGET: GSK3b (GST-full length GSK3b) (Homo sapiens (Human))
# Sequence (P49841 whole entry): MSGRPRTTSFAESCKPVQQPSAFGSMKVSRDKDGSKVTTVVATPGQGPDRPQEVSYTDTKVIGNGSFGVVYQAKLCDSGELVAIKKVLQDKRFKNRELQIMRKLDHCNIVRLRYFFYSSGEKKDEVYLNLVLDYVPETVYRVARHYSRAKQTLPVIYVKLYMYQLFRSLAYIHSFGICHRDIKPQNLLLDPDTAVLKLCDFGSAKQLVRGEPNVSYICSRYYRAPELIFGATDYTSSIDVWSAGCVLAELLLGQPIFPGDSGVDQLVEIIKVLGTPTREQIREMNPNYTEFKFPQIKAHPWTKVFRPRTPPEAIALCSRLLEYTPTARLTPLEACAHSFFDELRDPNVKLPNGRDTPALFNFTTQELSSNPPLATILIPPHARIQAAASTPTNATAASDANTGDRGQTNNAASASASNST
# METHOD_SUMMARY: GSK3b TR-FRET kinase assay
# Type: biochemical
# ASSAY_SETUP: 1 nM GSK3b, 2 μM ATP, 30 minute preincubation; geometric mean; read-out: GSK3-B TR-FRET BIOCHEMICAL (TR-FRET); GMean; IC50
pIC50: −log10 of the molar value.
pIC50 by entry:

COMPOUND | ASSAY_RESULT
CCC1(c2cccc(-c3cn[nH]c3)c2)C2=C(CC(C)(C)NC2=O)Nc2n[nH]c(C(F)(F)F)c21 (stereo not shown) | ≥ 7.00
CCC1(c2cccc(C3CCOCC3)c2)C2=C(CC(C)(C)CC2=O)Nc2n[nH]cc21 (stereo not shown) [Compound 791273] | 6.00 to 7.00
CC[C@@]1(c2ccccc2)C2=C(Nc3n[nH]cc31)[C@@H](C)C[C@H](C)C2=O | < 5.30
CC[C@@]1(c2cccc(-c3ccncc3C3CC3)c2)C2=C(CC(C)(C)NC2=O)Nc2n[nH]cc21 | 5.30 to 6.00
CCC1(c2cccc(C(F)(F)F)c2)C2=C(CC(C)(C)CC2=O)Nc2n[nH]c(Br)c21 (stereo not shown) [Compound 810464] | 5.30 to 6.00

For CCC1(c2cccc(-c3c(Cl)cncc3Cl)c2)C2=C(CC(C)(C)NC2=O)Nc2n[nH]cc21 (stereo not shown) , what is its reported pIC50?
≥ 7.00

What about CCC1(c2cccc(N(C)c3cccnc3)c2)C2=C(CC(C)(C)CC2=O)Nc2n[nH]cc21 (stereo not shown) [Compound 874299] ?
< 5.30
